# Tested on: Erythrocyte
# Measurement protocol: Hemolytic activity in mouse erythrocyte assessed as hemolysis incubated for 1 hr by microplate reader analysis
# Format: toxicity, cell-based
HC10 for assorted compounds

Take a look at these entries with their results.
Given smiles: CCCCCCC(=O)NCCCC[C@@H](NC(=O)[C@H](CC(C)C)NC(=O)[C@H](CC(C)C)NC(=O)CN)C(=O)N[C@@H](CCCNC(=N)N)C(=O)N[C@H](C(=O)N[C@H](CCCCN)C(=O)N[C@H](C(=O)N[C@@H](CC(C)C)C(=O)N[C@@H](CC(C)C)C(N)=O)[C@@H](C)O)[C@@H](C)CC
HC10: > 256 µM
//
Given smiles: CCCCC(=O)NCCCC[C@@H](NC(=O)[C@@H](NC(=O)[C@H](CCCNC(=N)N)NC(=O)[C@@H](CCCCN)NC(=O)[C@H](CC(C)C)NC(=O)[C@H](CC(C)C)NC(=O)CN)[C@@H](C)CC)C(=O)N[C@H](C(=O)N[C@@H](CC(C)C)C(=O)N[C@@H](CC(C)C)C(N)=O)[C@@H](C)O
HC10: > 256 µM
//
Given smiles: CCCCCCCCCCCCCCCCC(=O)NCCCC[C@@H](NC(=O)[C@H](CC(C)C)NC(=O)[C@H](CC(C)C)NC(=O)CN)C(=O)N[C@@H](CCCNC(=N)N)C(=O)N[C@H](C(=O)N[C@H](CCCCN)C(=O)N[C@H](C(=O)N[C@@H](CC(C)C)C(=O)N[C@@H](CC(C)C)C(N)=O)[C@@H](C)O)[C@@H](C)CC
HC10: > 16 µM
//
Given smiles: CCCCC(=O)NCCCC[C@@H](NC(=O)[C@H](CC(C)C)NC(=O)[C@H](CC(C)C)NC(=O)CN)C(=O)N[C@@H](CCCNC(=N)N)C(=O)N[C@H](C(=O)N[C@H](CCCCN)C(=O)N[C@H](C(=O)N[C@@H](CC(C)C)C(=O)N[C@@H](CC(C)C)C(N)=O)[C@@H](C)O)[C@@H](C)CC
HC10: > 256 µM

Kindly note the recorded HC10 for `CCCCCCCCC(=O)NCCCC[C@@H](NC(=O)[C@H](CC(C)C)NC(=O)[C@H](CC(C)C)NC(=O)CN)C(=O)N[C@@H](CCCNC(=N)N)C(=O)N[C@H](C(=O)N[C@H](CCCCN)C(=O)N[C@H](C(=O)N[C@@H](CC(C)C)C(=O)N[C@@H](CC(C)C)C(N)=O)[C@@H](C)O)[C@@H](C)CC` , which is > 256 µM

* * *

# Test system: Pseudomonas aeruginosa
# Measurement protocol: Antibacterial activity against Pseudomonas aeruginosa PAO1 assessed as bacterial growth inhibition
# Assay type: functional
Peptide text beside a SMILES is read from it. * marks the point of attachment. Undecanoyl = CCCCCCCCCCC(=O)*; Nonanoyl = CCCCCCCCC(=O)*
Quick reference: MIC of the listed items.
A bare number is not enough; add the unit after it.

Some entries whose results are on file:
Molecule: CCCCCCCCCCC(=O)NCC(=O)N[C@@H](CC(C)C)C(=O)N[C@@H](CC(C)C)C(=O)N[C@@H](CCCCN)C(=O)N[C@H](C(=O)N[C@H](C(=O)N[C@@H](CCCCN)C(=O)N[C@@H](CCCCN)C(=O)N[C@@H](CC(C)C)C(=O)N[C@@H](CC(C)C)C(N)=O)[C@@H](C)CC)[C@@H](C)CC (Undecanoyl-GLLKIIKKLL-NH2)
Property: MIC
Result: 34.7 µM

Molecule: CCCCCCCCCCC(=O)NCC(=O)N[C@@H](CC(C)C)C(=O)N[C@@H](CCCCN)C(=O)N[C@@H](CCCCN)C(=O)N[C@H](C(=O)N[C@H](C(=O)N[C@@H](CCCCN)C(=O)N[C@@H](CCCCN)C(=O)N[C@@H](CC(C)C)C(=O)N[C@@H](CC(C)C)C(N)=O)[C@@H](C)CC)[C@@H](C)CC (Undecanoyl-GLKKIIKKLL-NH2)
Property: MIC
Result: 16.7 µM

Molecule: CCCCCCCCC(=O)NCC(=O)N[C@@H](CC(C)C)C(=O)N[C@@H](CCCCN)C(=O)N[C@@H](CCCCN)C(=O)N[C@H](C(=O)N[C@H](C(=O)N[C@@H](CCCCN)C(=O)N[C@@H](CCCCN)C(=O)N[C@@H](CC(C)C)C(=O)N[C@@H](CC(C)C)C(N)=O)[C@@H](C)CC)[C@@H](C)CC (Nonanoyl-GLKKIIKKLL-NH2)
Property: MIC
Result: 11.5 µM

Let's switch to this molecule now.
response.value for CCCCCCCCCCC(=O)NCC(=O)N[C@@H](CC(C)C)C(=O)N[C@@H](CC(C)C)C(=O)N[C@@H](CCCCN)C(=O)N[C@@H](Cc1ccccc1)C(=O)N[C@H](C(=O)N[C@@H](CCCCN)C(=O)N[C@@H](CCCCN)C(=O)N[C@@H](CC(C)C)C(=O)N[C@@H](CC(C)C)C(N)=O)[C@@H](C)CC (Undecanoyl-GLLKFIKKLL-NH2) (field: MIC) = 33.9 µM

* * *

Reported MIC values for the following molecules.
# Test system: Escherichia coli
# Measurement protocol: Antibacterial activity against Escherichia coli ATCC 25922 assessed as reduction in bacterial cell growth incubated for 18 hrs by two fold serial microdilution method
# Format: functional
Square brackets hold non-standard residues; d marks the D form. Peptide text beside a SMILES is read from it. βAla = NCCC(=O)O

// known answers, use as guide
Molecule: CC(C)C[C@H](NC(=O)[C@H](CC(C)C)NC(=O)[C@@H](NC(=O)[C@H](CCCCN)NC(=O)CCNC(=O)[C@H](CCCNC(=N)N)NC(=O)[C@H](CCCCN)NC(=O)[C@H](CC(C)C)NC(=O)[C@H](CC(C)C)NC(=O)CN)[C@@H](C)O)C(N)=O (H-GLLKR[βAla]KTLL-NH2)
Target of assay: Escherichia coli
MIC: > 128 µM
--
Molecule: CC[C@H](C)[C@H](NC(=O)[C@H](CCCNC(=N)N)NC(=O)[C@H](CCCCN)NC(=O)[C@H](CC(C)C)NC(=O)[C@H](CC(C)C)NC(=O)CN)C(=O)N[C@@H](CCCCN)C(=O)N[C@H](C(=O)N[C@@H](CC(C)C)C(=O)NCCC(N)=O)[C@@H](C)O (H-GLLKRIKTL[βAla]-NH2)
Target of assay: Escherichia coli
MIC: > 128 µM
--
Molecule: CC[C@H](C)[C@H](NC(=O)[C@H](CCCNC(=N)N)NC(=O)[C@H](CCCCN)NC(=O)[C@H](CC(C)C)NC(=O)[C@H](CC(C)C)NC(=O)CN)C(=O)N[C@@H](CCCCN)C(=O)N[C@H](C(=O)NCCC(=O)N[C@@H](CC(C)C)C(N)=O)[C@@H](C)O (H-GLLKRIKT[βAla]L-NH2)
Target of assay: Escherichia coli
MIC: > 128 µM

Would you kindly look at the next entry?
get_value(item= CC[C@H](C)[C@H](NC(=O)[C@H](CCCNC(=N)N)NC(=O)[C@H](CCCCN)NC(=O)CCNC(=O)[C@H](CC(C)C)NC(=O)CN)C(=O)N[C@@H](CCCCN)C(=O)N[C@H](C(=O)N[C@@H](CC(C)C)C(=O)N[C@@H](CC(C)C)C(N)=O)[C@@H](C)O (H-GL[βAla]KRIKTLL-NH2) , readout=MIC) returns > 128 µM
